Values compiled from paper PMC10786919.

Readings of cell entry EC50 for the listed molecules
- measurement.protocol: in vitro
- condition.label: Nanoclick permeability assay EC50
Positions of bridges follow the written chain, without caps; N, C: chain ends. Non-standard residues stand in square brackets, D forms with d. Residues, ends and D or L forms follow the SMILES beside them. Lys(N3) = [N-]=[N+]=NCCCC[C@H](N)C(=O)O; R8 = C=CCCCCCC[C@@](C)(N)C(=O)O; Cba = N[C@@H](CC1CCC1)C(=O)O; S5 = C=CCCC[C@](C)(N)C(=O)O; βAla = NCCC(=O)O

| molecule | inequality.symbol | cell entry EC50 / nM |
| --- | --- | --- |
| CC(=O)N[C@@H](CCCCN=[N+]=[N-])C(=O)NCCC(=O)N[C@@H](CC(C)C)C(=O)N[C@H](C(=O)N[C@@H](Cc1ccccc1)C(=O)N[C@]1(C)CCCCCCC=CCCC[C@@](C)(C(=O)N[C@@H](CO)C(=O)N(C)[C@@H](C)C(=O)N[C@@H](C)C(N)=O)NC(=O)[C@H](CC2CCC2)NC(=O)[C@H](CCC(N)=O)NC(=O)[C@H](C)NC(=O)[C@H](Cc2c[nH]c3ccccc23)NC(=O)[C@H](Cc2ccc(O)cc2)NC(=O)[C@H](CCC(=O)O)NC1=O)[C@@H](C)O [MP-3353] | = | 232 |
| CC(C)C[C@H](NC(=O)CCNC(=O)[C@@H](N)CCCCN=[N+]=[N-])C(=O)N[C@H](C(=O)N[C@@H](Cc1ccccc1)C(=O)N[C@]1(C)CCCCCCC=CCCC[C@@](C)(C(N)=O)NC(=O)[C@H](CC2CCC2)NC(=O)[C@H](CCC(N)=O)NC(=O)[C@H](C)NC(=O)[C@H](Cc2c[nH]c3ccccc23)NC(=O)[C@H](Cc2ccc(O)cc2)NC(=O)[C@H](CCC(=O)O)NC1=O)[C@@H](C)O [MP-327] (H-[Lys(N3)][βAla]LTF[R8]EYWAQ[Cba][S5]-NH2; staple 6-13) | > | 10000 |
| CC(=O)N[C@@H](CCCCN=[N+]=[N-])C(=O)NCCC(=O)N[C@@H](CC(C)C)C(=O)N[C@H](C(=O)N[C@@H](Cc1ccccc1)C(=O)N[C@]1(C)CCCCCCC=CCCC[C@@](C)(C(=O)N[C@@H](CO)C(=O)N[C@@H](C)C(=O)N[C@@H](C)C(N)=O)NC(=O)[C@H](CC2CCC2)NC(=O)[C@@H]2CCCN2C(=O)[C@H](C)NC(=O)[C@H](Cc2c[nH]c3ccccc23)NC(=O)[C@H](Cc2ccc(O)cc2)NC(=O)[C@H](CCC(=O)O)NC1=O)[C@@H](C)O [MP-260] (Ac-[Lys(N3)][βAla]LTF[R8]EYWAP[Cba][S5]SAA-NH2; staple 6-13) | = | 246 |
| CC(=O)N[C@@H](CCCCN=[N+]=[N-])C(=O)NCCC(=O)N[C@@H](CC(C)C)C(=O)N[C@H](C(=O)N[C@@H](Cc1ccccc1)C(=O)N[C@]1(C)CCCCCCC=CCCC[C@@](C)(C(=O)N[C@@H](CO)C(=O)N[C@@H](C)C(=O)N[C@@H](C)C(N)=O)NC(=O)[C@H](CC2CCC2)NC(=O)[C@H](CCC(N)=O)NC(=O)[C@H](C)NC(=O)[C@H](Cc2c[nH]c3cc(F)ccc23)NC(=O)[C@H](Cc2ccc(O)cc2)NC(=O)[C@H](CCC(=O)O)NC1=O)[C@@H](C)O [MP-004] | = | 7440 |

====

- measurement.protocol: Lactate dehydrogenase (LDH) release assay
- Type: cell-based
- condition.label: 10% FBS 16Hr; read-out: LDH: Cytotoxicity assay: EC50
Positions of bridges follow the written chain, without caps; N, C: chain ends. Non-standard residues stand in square brackets, D forms with d. Residues, ends and D or L forms follow the SMILES beside them. Lys(N3) = [N-]=[N+]=NCCCC[C@H](N)C(=O)O; R8 = C=CCCCCCC[C@@](C)(N)C(=O)O; Cba = N[C@@H](CC1CCC1)C(=O)O; S5 = C=CCCC[C@](C)(N)C(=O)O; βAla = NCCC(=O)O
quantity: EC50

| molecule | result |
| --- | --- |
| CC(=O)N[C@@H](CCCCN=[N+]=[N-])C(=O)NCCC(=O)N[C@@H](CC(C)C)C(=O)N[C@H](C(=O)N[C@@H](Cc1ccccc1)C(=O)N[C@]1(C)CCCCCCC=CCCC[C@@](C)(C(=O)NCC(=O)NCC(=O)NCC(=O)NCC(=O)NCC(=O)NCC(N)=O)NC(=O)[C@H](CC2CCC2)NC(=O)[C@H](CCC(N)=O)NC(=O)[C@H](C)NC(=O)[C@H](Cc2c[nH]c3ccccc23)NC(=O)[C@H](Cc2ccc(O)cc2)NC(=O)[C@H](CCC(=O)O)NC1=O)[C@@H](C)O [MP-289] (Ac-[Lys(N3)][βAla]LTF[R8]EYWAQ[Cba][S5]GGGGGG-NH2; staple 6-13) | > 50.7 µM |

====

- Test system: HCT116 cells
- measurement.protocol: Lactate dehydrogenase (LDH) release assay
- Assay type: cell-based
- condition.label: 0% FBS 4Hr
Positions of bridges follow the written chain, without caps; N, C: chain ends. Non-standard residues stand in square brackets, D forms with d. Residues, ends and D or L forms follow the SMILES beside them. R8 = C=CCCCCCC[C@@](C)(N)C(=O)O; Cba = N[C@@H](CC1CCC1)C(=O)O; S5 = C=CCCC[C@](C)(N)C(=O)O
quantity: LDH: Cytotoxicity assay % Effect

| compound | result |
| --- | --- |
| CC(=O)N[C@@H](CC(C)C)C(=O)N[C@H](C(=O)N[C@@H](Cc1ccccc1)C(=O)N[C@]1(C)CCCCCCC=CCCC[C@@](C)(C(=O)N[C@@H](Cc2c[nH]cn2)C(=O)N[C@@H](C)C(=O)N[C@@H](C)C(N)=O)NC(=O)[C@H](CC2CCC2)NC(=O)[C@H](CC(C)C)NC(=O)[C@H](CCC(N)=O)NC(=O)[C@H](Cc2c[nH]c3ccccc23)NC(=O)[C@H](Cc2ccc(O)cc2)NC(=O)[C@H](CCC(=O)O)NC1=O)[C@@H](C)O [MP-201, ATSP-7041 (S12H)] (Ac-LTF[R8]EYWQL[Cba][S5]HAA-NH2; staple 4-11) | 10.92% |

====

- measurement.protocol: Lactate dehydrogenase (LDH) release assay
- Type: cell-based
- condition.label: LDH: Cytotoxicity assay EC50
Positions of bridges follow the written chain, without caps; N, C: chain ends. Non-standard residues stand in square brackets, D forms with d. Residues, ends and D or L forms follow the SMILES beside them. Trp(6-Cl) = N[C@@H](Cc1c[nH]c2cc(Cl)ccc12)C(=O)O; Lys(N3) = [N-]=[N+]=NCCCC[C@H](N)C(=O)O; R8 = C=CCCCCCC[C@@](C)(N)C(=O)O; Cba = N[C@@H](CC1CCC1)C(=O)O; S5 = C=CCCC[C@](C)(N)C(=O)O; Aib = CC(C)(N)C(=O)O
# Lookup of reported EC50 keyed by entry

| compound | reading.unit | inequality.symbol | EC50 |
| --- | --- | --- | --- |
| CC(=O)N[C@@H](CCCNC(=N)N)C(=O)N[C@@H](CCCNC(=N)N)C(=O)N[C@@H](CCCNC(=N)N)C(=O)NCCCCCC(=O)N[C@H](C(=O)N[C@@H](CO)C(=O)N[C@@H](Cc1ccccc1)C(=O)N[C@]1(C)CCCCCCC=CCCC[C@@](C)(C(N)=O)NC(=O)[C@H](CC(C)C)NC(=O)[C@H](CC(C)C)NC(=O)[C@H](C)NC(=O)[C@H](Cc2c[nH]c3ccccc23)NC(=O)[C@H](Cc2ccc(O)cc2)NC(=O)[C@H](CCC(=O)O)NC1=O)[C@@H](C)O | µM | = | 31.8 |
| CC(=O)N[C@H](C(=O)N[C@@H](CO)C(=O)N[C@@H](Cc1ccccc1)C(=O)N[C@]1(C)CCCCCCC=CCCC[C@@](C)(C(=O)N[C@@H](CCC(=O)O)C(N)=O)NC(=O)[C@H](CC2CCC2)NC(=O)[C@H](CC(C)C)NC(=O)[C@H](C)NC(=O)[C@H](Cc2c[nH]c3cc(Cl)ccc23)NC(=O)[C@H](Cc2ccc(O)cc2)NC(=O)[C@H](CCC(=O)O)NC1=O)[C@@H](C)O [MP-043] (Ac-TSF[R8]EY[Trp(6-Cl)]AL[Cba][S5]E-NH2; staple 4-11) | µM | > | 50 |
| CC(=O)N[C@@H](CCCCN)C(=O)N[C@@H](CCCCN)C(=O)N[C@H](C(=O)N[C@@H](CO)C(=O)N[C@@H](Cc1ccccc1)C(=O)N[C@]1(C)CCCCCCC=CCCC[C@@](C)(C(N)=O)NC(=O)[C@H](CC(C)C)NC(=O)[C@H](CC(C)C)NC(=O)[C@H](C)NC(=O)[C@H](Cc2c[nH]c3ccccc23)NC(=O)[C@H](Cc2ccc(O)cc2)NC(=O)[C@H](CCC(=O)O)NC1=O)[C@@H](C)O | µM | = | 46.7 |
| CC(=O)N[C@@H](CCCCN=[N+]=[N-])C(=O)N[C@H](C(=O)N[C@@H](CO)C(=O)N[C@@H](Cc1ccccc1)C(=O)N[C@]1(C)CCCCCCC=CCCC[C@@](C)(C(=O)N[C@@H](CO)C(=O)N[C@@H](C)C(=O)N[C@@H](C)C(N)=O)NC(=O)[C@H](CC2CCC2)NC(=O)[C@H](CCC(N)=O)NC(=O)[C@H](C)NC(=O)[C@H](Cc2c[nH]c3ccccc23)NC(=O)[C@H](Cc2ccc(O)cc2)NC(=O)[C@H](C)NC1=O)[C@@H](C)O [MP-703] (Ac-[Lys(N3)]TSF[R8]AYWAQ[Cba][S5]SAA-NH2; staple 5-12) | µM | > | 50 |
| CC(=O)N[C@H](C(=O)N[C@@H](CO)C(=O)N[C@@H](Cc1ccccc1)C(=O)NC(C)(C)C(=O)N[C@@H](CCC(=O)O)C(=O)N[C@@H](Cc1ccc(O)cc1)C(=O)N[C@@H](Cc1c[nH]c2ccccc12)C(=O)N[C@@H](C)C(=O)N[C@@H](CC(C)C)C(=O)N[C@@H](CC1CCC1)C(=O)NC(C)(C)C(N)=O)[C@@H](C)O [MP-1154] (Ac-TSF[Aib]EYWAL[Cba][Aib]-NH2) | µM | > | 50 |
